Cited source for all entries: ChEMBL document CHEMBL1127132

Test system: Klebsiella
protocol summary: Compound was evaluated for antibacterial activity against Klebsiella 57USA compared to imipenem
Format: functional
Entries and their MIC

| compound | subject of test | bound operator | MIC [µg/mL] |
| --- | --- | --- | --- |
| C[C@@H](O)[C@H]1C(=O)N2C(C(=O)[O-])=C3c4ccccc4SC[C@@H]3[C@H]12.[Na+] | Klebsiella | = | 4 |
| C[C@@H](O)[C@H]1C(=O)N2C(C(=O)[O-])=C3c4ccccc4CCC[C@@H]3[C@H]12.[Na+] | Klebsiella | = | 1 |
| C[C@@H](O)[C@H]1C(=O)N2C(C(=O)O)=C(SCCNC=N)C[C@H]12 [IMIPENEM ANHYDROUS] | Klebsiella | < | 0.25 |
| C[C@@H](O)[C@H]1C(=O)N2C(C(=O)[O-])=C3c4ccsc4CC[C@@H]3[C@H]12.[Na+] | Klebsiella | = | 4 |
